Hey, just so you know, these numbers are from paper PMC4336329.

Let's look at some molecules and their measured hERG current change (%, negative = inhibition) at 1uM.
target: human ether-à-go-go-related gene (hERG) potassium channel (human, UniProt Q12809); assay: primary screen, population patch clamp on CHO cells stably expressing hERG; higher = less effect of the substance
Sequence (Q12809 whole entry, looked up): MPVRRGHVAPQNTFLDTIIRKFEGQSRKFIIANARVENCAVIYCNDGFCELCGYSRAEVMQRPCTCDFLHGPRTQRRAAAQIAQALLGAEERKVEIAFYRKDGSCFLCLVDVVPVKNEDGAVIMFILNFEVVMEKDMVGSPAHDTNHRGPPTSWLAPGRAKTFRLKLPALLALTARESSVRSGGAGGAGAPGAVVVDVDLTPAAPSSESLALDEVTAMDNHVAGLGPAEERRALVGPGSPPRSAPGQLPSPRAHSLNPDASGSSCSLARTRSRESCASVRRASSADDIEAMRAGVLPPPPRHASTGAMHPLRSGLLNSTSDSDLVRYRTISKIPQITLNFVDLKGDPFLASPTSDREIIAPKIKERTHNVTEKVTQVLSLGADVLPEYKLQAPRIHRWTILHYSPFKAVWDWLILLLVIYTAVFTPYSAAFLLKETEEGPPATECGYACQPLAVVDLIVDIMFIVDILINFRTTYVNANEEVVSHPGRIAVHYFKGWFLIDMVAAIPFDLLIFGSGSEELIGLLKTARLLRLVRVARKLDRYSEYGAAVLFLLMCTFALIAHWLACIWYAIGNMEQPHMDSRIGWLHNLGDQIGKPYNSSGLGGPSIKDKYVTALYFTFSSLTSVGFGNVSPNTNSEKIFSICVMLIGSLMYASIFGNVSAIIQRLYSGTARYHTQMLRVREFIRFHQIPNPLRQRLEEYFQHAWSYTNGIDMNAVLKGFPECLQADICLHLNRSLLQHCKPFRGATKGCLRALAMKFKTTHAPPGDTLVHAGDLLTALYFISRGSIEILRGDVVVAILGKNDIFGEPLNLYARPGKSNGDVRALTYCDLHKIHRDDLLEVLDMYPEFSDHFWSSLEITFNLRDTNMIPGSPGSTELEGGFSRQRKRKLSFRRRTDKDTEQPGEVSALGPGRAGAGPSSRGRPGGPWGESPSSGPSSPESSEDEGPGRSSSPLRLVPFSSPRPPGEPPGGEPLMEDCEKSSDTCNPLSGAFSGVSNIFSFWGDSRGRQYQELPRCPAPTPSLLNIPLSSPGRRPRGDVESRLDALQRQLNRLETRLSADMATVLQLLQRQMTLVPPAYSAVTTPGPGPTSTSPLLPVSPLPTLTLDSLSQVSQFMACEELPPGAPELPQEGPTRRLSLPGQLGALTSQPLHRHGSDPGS
Hit rate of the full screen: of about 310,000 compounds, about 2,200 (0.71%) showed an effect of 50% or more. Effects have a minus sign here. Many of the other results were omitted from the sample, so strong results are more common in it than they were.
Test Readout: hERG current change (%, negative = inhibition) at 1uM (%)

{"columns": ["Molecule", "Numeric Readout"],
 "data": [
  ["Cc1oc(-c2ccccc2F)nc1CN1CCC(C(=O)NCc2ccco2)CC1", -9.53],
  ["N#Cc1ccccc1S(=O)(=O)N1CCN(CC(=O)Nc2ccccc2C(=O)NC2CC2)CC1", -25.4],
  ["CCSc1nnc(-c2ccc(OC)cc2)o1", 3.96],
  ["CCCNC(=O)CCC(NS(=O)(=O)c1ccc(C)cc1)C(=O)NCCC (stereo not drawn)", 7.66],
  ["Cc1oc(-c2cccc(Cl)c2)nc1CN1CCC(C(=O)NC2CC2)CC1", 14.6],
  ["O=C(CCN1CCN(c2ccccc2)CC1)Nc1ccccc1F", 14.5],
  ["COc1cc2c(c(OC)c1OC)-c1c(cc(OC)c(OC)c1OC)C[C@](C)(O)[C@@H](C)C2", -58.4],
  ["COc1ccc(CN2CCN(Cc3ccon3)CC2CCO)c(C)c1C (stereo not drawn)", 2.93],
  ["Cc1ccccc1-c1nc(CN2CCC(C(=O)NCc3ccco3)CC2)c(C)o1", -34.7]
]}
